- METHOD: Neurotoxicity in po dosed Sprague-Dawley rat after 0.5 hr by rotarod test
- Type: toxicity, organism-based
- CONDITION_NOTES: in vivo
ATTRIBUTE_MEASURED: TD50 at 0.5 h (mg/kg)
One number for each entry, in mg/kg.

# return recorded TD50 at 0.5 h for entry `CC1(C)CC(=O)N(Nc2ccccc2)C1=O`
500

----------
- METHOD: Neurotoxicity in po dosed Sprague-Dawley rat after 2 hrs by rotarod test
- Assay type: toxicity, organism-based
- CONDITION_NOTES: in vivo
ATTRIBUTE_MEASURED: TD50 at 2 h

# return recorded TD50 at 2 h for entry O=C1NC(=O)C(c2ccccc2)(c2ccccc2)N1 [PHENYTOIN]
> 500 mg/kg

Cited source: ChEMBL document CHEMBL1157190
